Each item that follows carries a reported Population Healthy Nuclei (%).
Test system: Fibroblast
Experiment: Multiplex assay against human fibroblast
Format: toxicity, cell-based
Settings: 48 h, 10 µM, compound concentration 10 uM, replicate 1

# compound, unit.descriptor, Population Healthy Nuclei (%)
measured = [
    ("O=C1COc2nccc(-c3ccccc3F)c2CN1Cc1cc(C(F)(F)F)cc(C(F)(F)F)c1", "%", 72),
    ("CC1(COc2ccc3c(c2)ncn3-c2ccc3cccc(N4CCC(N)CC4)c3n2)COC1", "%", 62),
    ("COc1cc(NC(=O)CCN2CCC(OC(=O)Nc3ccccc3-c3ccccc3)CC2)c(Cl)cc1CNC[C@H](O)c1ccc(O)c2[nH]c(=O)ccc12", "%", 54),
    ("CN1CCN2c3ncccc3Cc3ccccc3C2C1 (stereo not given)", "%", 73),
    ("c1cc(OCCCN2CCCCC2)ccc1CN1CCCCC1", "%", 70),
    ("CCCC(CCC)C(=O)O", "%", 60),
    ("C[C@@H]1C[C@H]2[C@@H]3CCC4=CC(=O)C=C[C@]4(C)[C@@]3(F)[C@@H](O)C[C@]2(C)[C@@]1(O)C(=O)CO", "%", 55),
    ("Cc1ccc(/C(=C\\CN2CCCC2)c2ccccn2)cc1", "%", 69),
    ("CCOc1c2c(c(OCC)c3ncccc13)CN(c1ccc(CS(=O)(=O)NC(=O)Cc3ccccc3OC)cc1C)C2=O", "%", 63),
    ("CN1CCN(c2nc3cc(C(F)(F)F)ccc3n3cccc23)CC1.O=C(O)/C=C\\C(=O)O.O=C(O)/C=C\\C(=O)O", "%", 68),
    ("O=C(NCC(=O)N1CC[C@H](N[C@H]2CC[C@@](O)(c3ccc(-c4ncccn4)cn3)CC2)C1)c1cccc(C(F)(F)F)c1", "%", 72),
    ("Cc1ccc(F)cc1C(=O)Nc1ccc(C(=O)N2Cc3cccn3Cc3ccccc32)c(Cl)c1", "%", 62),
    ("CSc1ccccc1N1CCN(CCCCCC(=O)NC2CCCc3ccccc32)CC1.Cl (stereo not given)", "%", 61),
    ("Cc1nc2ccc(Oc3ccc(F)cc3)cc2c(=O)n1C[C@H]1CCCN(C(C)C)C1.Cl", "%", 65),
    ("COc1ccc2c(c1)C(C(=O)N(Cc1ccc(N(C)C)cc1)c1ccc(C(C)C)cc1)CCC2.Cl (stereo not given)", "%", 71),
    ("Cl.Clc1ccc2nsnc2c1NC1=NCCN1 [TIZANIDINE HYDROCHLORIDE]", "%", 56),
    ("O=C(O)Cc1ccccc1Nc1c(Cl)cccc1Cl", "%", 65),
    ("CC(C)(C)c1ccc(S(=O)(=O)Nc2ccc(Cl)cc2C(=O)c2cc[n+]([O-])cc2)cc1", "%", 64),
    ("C[C@H]1[C@H]2CC[C@H]3[C@@H]4CC=C5C[C@@H](N(C)C)CC[C@]5(C)[C@H]4CC[C@]23CN1C", "%", 62),
    ("N#Cc1c(N)nc(SCc2csc(-c3ccc(Cl)cc3)n2)c(C#N)c1-c1ccc(OCCO)cc1", "%", 53),
    ("COc1c(C)cc(NC(=O)c2nn(Cc3ccc(F)cc3)c3c2CN(C(=O)c2ccc[nH]2)C[C@]3(C)C(N)=O)cc1C", "%", 60),
    ("CC(=O)NCCc1c(Cc2ccccc2)[nH]c2ccccc12", "%", 70),
    ("Cc1ccccc1C(=O)Nc1ccc(C(=O)N2CCCC(N(C)C)c3ccccc32)cc1.Cl (stereo not given)", "%", 60),
    ("O=S(=O)(c1ccccc1)c1cnc2c(N3CCNCC3)cccc2c1 [INTEPIRDINE]", "%", 67),
    ("CN(C)CCCc1cc(C(=O)Nc2ccc(-c3ccncc3)cc2)ccc1O.Cl.Cl", "%", 60),
    ("CNC[C@H](O)c1ccc(O)c(O)c1 [EPINEPHRINE]", "%", 65),
    ("Oc1c(CN2CCN(c3ccccn3)CC2)cc(Cl)c2cccnc12", "%", 32),
    ("CN(C)c1ccnc2sc3c(=O)n(N4CCCCCC4)cnc3c12", "%", 47),
    ("COc1cc(C(=O)N(CCCc2ccccc2)Cc2ccc(CC(=O)O)cc2)cc(OC)c1C", "%", 65),
    ("O=C(O)c1cc2ccccc2c(Cc2c(O)c(C(=O)O)cc3ccccc23)c1O", "%", 72),
]
